- experiment-summary: Primary qHTS for inhibitors of nuclear receptor binding SET domain protein 2 (NSD2) in an isogenic RCH-ACV NSD2 p.E1099K mutant (9B) (AID 1645876); also: nearly all actives have a fitted effect of over 70% in size
- condition-description: RCH-ACV (leukaemia line) NSD2 E1099K (9B) viability, CellTiter-Glo, 72 h; series mostly up to 44.9 µM
Records with an inconclusive call do not appear. Active and inactive are the calls of the source. Calls follow the shape of the dose curve; as a rule, active = well fitted inhibition curve with a large enough effect; inconclusive = small, poorly fitted or top-dose-only effect; inactive = flat fitted curve, though single readings scatter.
Log the outcome using a class from 1 = active, -1 = inactive

Given CO[C@@H]1C[C@H](O[C@H]2CC[C@@]3(C)C(CCC4C3CC[C@]3(C)[C@@H](C5=CC(=O)OC5)[C@@H](OC(C)=O)CC43O)C2)O[C@H](C)[C@@H]1O[C@H]1O[C@H](CO[C@@H]2O[C@H](CO)[C@@H](O)[C@H](O)[C@H]2O)[C@@H](O)[C@H](O)[C@H]1O (stereo partly specified) , state the outcome it received in this test. 1

Given `O=C1Nc2ccc3ncsc3c2/C1=C/c1cnc[nH]1` , state the outcome it received in this test. 1

Given C[C@@H]1O[C@@H](O[C@H]2CC[C@@]3(C)C(CC[C@@H]4C3CC[C@]3(C)[C@@H](C5=CC(=O)OC5)CC[C@]43O)C2)[C@H](O)[C@H](O)[C@H]1O (stereo partly specified) , state the outcome it received in this test. 1

Given `COc1ccc(C(C)(C)C)cc1CN[C@H]1C2CCN(CC2)[C@H]1C(c1ccccc1)c1ccccc1` , state the outcome it received in this test. 1

Given `COc1ccsc1CNCC[C@@]1(c2ccccn2)CCOC2(CCCC2)C1` , state the outcome it received in this test. -1

Given C[C@@H]1O[C@@H](OC2CCC3(C=O)C(CCC4C3CCC3(C)C(C5=CC(=O)OC5)C(O)CC43O)C2)[C@H](O)[C@H](O)[C@H]1O[C@@H]1O[C@H](CO)[C@@H](O)[C@H](O)[C@H]1O (stereo partly specified) , state the outcome it received in this test. 1

* * *

Known max response of a selection of compounds
- test-target: Nuclear receptor subfamily 1 group I member 2 (Rattus norvegicus)
- experiment-summary: qHTS assay for small molecule activators of the rat pregnane X receptor (rPXR) signaling pathway (AID 651751); also: 0% is about no effect
- condition-description: rPXR reporter cells, luciferase (One-Glo), 24 h
Give your result in % as a bare value.

Below, each entry is followed by its recorded max response result.
CC(=O)/C=C/c1ccccc1	-0.846
C[C@@H]1Cc2c(Cl)cc(C(=O)N[C@@H](Cc3ccccc3)C(=O)O)c(O)c2C(=O)O1	-12
Cc1ccc(C)c2ccccc12	-3.33
C[C@H]1O[C@H](OC2[C@@H](O)[C@@H](O)C(O)[C@H](O)[C@H]2O)[C@@H](N)C[C@@H]1N=C(N)C(=O)O (some centres undefined)	-0.488
CC(C)OC(=O)Nc1ccccc1	10.9

Turning now to a further compound:
// `CCCCOP(=O)(O)OCCCC` : max response value = 5.92

* * *

- experiment-summary: qHTS for Inhibitors of the Functional Ribonucleoprotein Complex (vRNP) of Lymphocytic Choriomeningitis Arenaviruses (LCMV): Viability assay - alamar blue signal for LCMV Primary Screen (AID 1347085); also: nearly all actives have a fitted effect of over 80% in size
- condition-description: alamar blue viability counter-screen, LCMV vRNP screen cells; series mostly up to 57.5 µM
Inconclusive results are not listed. The source made the active and inactive calls. Calls follow the shape of the full dose curve; tested in HEK293 reporter line.
Log the outcome using a class from TRUE = active, FALSE = inactive

Given COC1CCC(OC2CC(C3(C)CCC4(CC(O)C(C)C(C(C)/C=C(\C)C(=O)C(C)CC(C)C(=O)O)O4)O3)OC3(OC(C4OC(O)(CO)C(C)CC4C)CC3C)C2C)OC1C (centres undefined) , state the outcome it received in this test. FALSE

Given `CC1(C)O[C@@H]2C[C@@H]3[C@H]4C[C@@H](F)C5=CC(=O)C=C[C@]5(C)[C@@]4(F)[C@@H](O)C[C@]3(C)[C@]2(C(=O)CO)O1` , state the outcome it received in this test. FALSE

Given `O=C(O)Cn1nnc(-c2cc(N3CCC(Oc4cc(F)ccc4Br)CC3)no2)n1` , state the outcome it received in this test. TRUE

Given `FC(F)(F)c1ccc(Nc2nc3ccc(Oc4ccnc(-c5ncc(C(F)(F)F)[nH]5)c4)cc3[nH]2)cc1` , state the outcome it received in this test. TRUE
